system: OVCAR-8 ovarian; experiment: NCI tumour cell line growth inhibition, 48 h
Below, each of the compounds is paired with its reported TGI value.
result type: TGI

* COC(=O)c1ccc(C2SCC(=O)N2NC(=O)C(O)c2ccccc2)cc1 (stereo unspecified) | > 100 µM
* O=C(O)c1cc(Sc2ccc([N+](=O)[O-])c(C(=O)O)c2)ccc1[N+](=O)[O-] | > 100 µM
* COc1ccc(-c2nocc2-c2cc(OC)c(OC)c(OC)c2)cc1 | > 100 µM
* C/C(=N/N)c1ccc2[nH]c3c(C)cc([N+](=O)[O-])c(C)c3c2c1 | 26.5 µM
* COc1cc2c(cc1OC)C(Cc1c3ccccc3cc3ccccc13)N(C)CC2 (stereo unspecified) | > 90.7 µM
* CC(C)(O)[C@H](CCO)O[Si](c1ccccc1)(c1ccccc1)C(C)(C)C | 23.8 µM

###

tested on: SF-268 CNS; experiment: NCI tumour cell line growth inhibition, 48 h; in the data active = GI50 below about 0.43 µM; inactive = the rest
Outcome codes: Yes = active, No = inactive

- CCCCCCCCCC(CCCC(O)CC(=O)O)OC1OC(COC2OC(C)C(O)C(O)C2O)C(O)C(O)C1OC1OC(CO)C(O)C(O)C1OC1OC(C)C(O)C(O)C1O (stereo unspecified): No
- C[C@@]1(N2C(=O)OC[C@@H]2c2ccccc2)C(=O)N([C@H](CC(=O)N2CCC(N3CCCCC3)CC2)C(=O)NCc2cccc(C(F)(F)F)c2)[C@@H]1/C=C/c1ccccc1: No
- CCc1ccc(Nc2cc(C)nc3nc(C)nn23)cc1: No
- Cc1nn(-c2ccc(Br)cc2)c(C)c1CC(=O)c1cc(O)ccc1O: No
- CCN1CCN(C(=O)[C@]23CCC(C)(C)C[C@@H]2C2=CC[C@@H]4[C@@]5(C)C/C(=C/c6cccnc6)C(=O)C(C)(C)[C@@H]5CC[C@@]4(C)[C@]2(C)CC3)CC1: No
- CC[C@@]1(O)C(=O)OCc2c1cc1n(c2=O)Cc2c-1nc1ccccc1c2/C=N/OC(C)(C)C: Yes
- COc1cc2c3c(n(CCCCl)c(=O)c2cc1OC)-c1ccc(C#N)cc1C3=O: No
- COc1ccc(-c2nocc2-c2cc(OC)c(OC)c(OC)c2)cc1: No
- S=C(N/N=C(/c1ccccc1)c1ccccn1)Nc1cccc(Cl)c1: No
- Cc1ccc(NC(=O)c2nc(S(C)=O)oc2-c2ccc(F)cc2)cc1Nc1nccc(-c2cccnc2)n1 (stereo unspecified): No
- C/C(=N\NC(=O)c1ccncc1)c1ccc(O)cc1O: No

###

test system: SW-620 colon; experiment: NCI tumour cell line growth inhibition, 48 h
Below, each of the compounds is paired with its reported TGI value.
result type: TGI (µM)

• CC1(C)CC[C@]2(C(=O)O)CC[C@]3(C)C(=CC[C@@H]4[C@@]5(C)CC[C@H](OC6OC(CO)C(O)C(O)C6OC6OC(CO)C(O)C(O)C6O)C(C)(C)[C@@H]5CC[C@]43C)[C@@H]2C1 (some centres undefined) = 48.3
• O=S(=O)(NCCCNc1cc(-c2cn(-c3ccccc3)nc2-c2cccc(O)c2)ccn1)c1ccc(Cl)cc1 = 3.54

###

Below, each of the compounds is paired with its reported TGI value.
test system: HL-60(TB) leukemia; assay: NCI tumour cell line growth inhibition, 48 h
result type: TGI

* CC(=O)c1ccc(NCN2C(=O)c3ccccc3C2=O)cc1 | > 100 µM
* COc1ccc(C#CCC(OC2OC(CO)C(O)C(O)C2O)C(O)c2ccc(OC)c(OC)c2)cc1OC (stereo not drawn) | > 100 µM
* CN1CCN(c2ccc(-n3cc(C(=O)O)c(=O)c4cc(F)c(N5CCN(C)CC5)cc43)nc2)CC1 | > 100 µM
* COc1ccc(C(=O)O)c(Cc2ccc3ccccc3c2)c1 | > 100 µM
* C/C(=N/N)c1ccc2[nH]c3c(C)cc([N+](=O)[O-])c(C)c3c2c1 | > 100 µM
* Cc1ccc(S(=O)(=O)n2cc(-c3nnnn3-c3ccc(Cl)cc3)c(=O)c3ccccc32)cc1 | 31 µM
* O=S(=O)(NCCCNc1cc(-c2cn(-c3ccccc3)nc2-c2cccc(O)c2)ccn1)c1ccc(Cl)cc1 | 5.61 µM
* CC1=C(c2cc(C(=O)Nc3nccs3)nc(NC#N)n2)Sc2ccccc2N1 | > 100 µM

###

Below, each of the compounds is paired with its reported TGI value.
tested on: NCI-H522 lung; assay: NCI tumour cell line growth inhibition, 48 h
result type: TGI

- COC(=O)NN1C(C)=C(C(=O)OC)C2(CCOC2=O)C1(C)O (stereo not drawn): > 100 µM
- COC(=O)C1CCC(=O)N1C(c1ccc2c(c1)OCO2)c1ccc2c(c1)OCO2 (stereo not drawn): > 100 µM
- Cc1nn(C)c2c1C(=O)N(C)CC(=O)N2C: > 100 µM
- COC1(C)C=NCC(C)(C)NC(=O)C(C)(OC)C=NCC(C)(C)NC1=O (stereo not drawn): > 10 µM
- CCOC(=O)/C=C/c1ccccn1: > 100 µM
- CC1=CC2C(C(C)C)CC1C1C(=O)OC(=O)C21 (stereo not drawn): > 100 µM
- CN(C)/C=N/c1nc2ncn(CCOC(=O)c3ccccc3)c2c(=O)[nH]1: > 100 µM
- Cc1cc(N=Nc2ccc(N=Nc3c(O)c(S(=O)(=O)O)cc4cc(S(=O)(=O)O)ccc34)cc2C)ccc1N=Nc1ccc2cc(S(=O)(=O)O)cc(S(=O)(=O)O)c2c1: > 100 µM
- COc1ccc([C@@H]2CC(=O)NCCCCNCCCN2)cc1: > 100 µM
- Nc1ccc(N)c2c1C(=O)c1c(N)ccc(N)c1C2=O: > 89.3 µM
- CSc1ccc2c(cc1=O)[C@@H](NC(=O)c1ccc(F)cc1)CCc1cc(O)c(O)c(O)c1-2: > 100 µM
- Cc1cc(-c2nc3cc(F)c(F)cc3s2)ccc1N: > 100 µM
- CN1OC2OC(=O)OC2[C@H]1[C@H]1O[C@H](c2ccccc2)OC1(C)c1cc(OC(=O)c2ccccc2)ccc1OC(=O)c1ccccc1 (stereo partly drawn): > 50 µM
- Cc1ccc(C(=O)NC(C)(C)C)cc1N=NN(C)C: > 100 µM
- COC(=O)c1scc(N)c1-n1ccc(=O)[nH]c1=O: > 100 µM
- CCCCCCCCCCCCP(=O)(O)OCC(N)C(=O)O (stereo not drawn): > 100 µM
- O=C(Nc1c(Cl)cc([N+](=O)[O-])cc1Cl)/C(=N\Nc1cccc(Cl)c1)c1c(O)c2ccccc2oc1=O: > 100 µM
- CC(=O)OCC1OC(n2c(-c3ccccc3)c(C)c(C)c(C#N)c2=S)C(OC(C)=O)C(OC(C)=O)C1OC(C)=O (stereo not drawn): > 100 µM
- COC(=O)CCC(=O)c1ccc2c(c1)CC1(C2)Cc2ccc3c(c2C1)CCCC3=O (stereo not drawn): > 73.5 µM
- O=c1/c(=C/c2ccc3c(c2)OCO3)sc2nnc(-c3ccco3)n12: > 100 µM
- Nc1c(C(=O)Nc2ccccc2)sc2nc3c(cc12)CCCC3: > 25.8 µM
- O=C1c2ccccc2C(=O)c2c1ccc1c2OCO1: > 100 µM
- O=c1[nH]c(=O)n(C2CC(O)C(CO)O2)cc1C#Cc1cc(F)cc(F)c1 (stereo not drawn): > 100 µM

###

Below, each of the compounds is paired with its reported TGI value.
test system: RPMI-8226 leukemia; assay: NCI tumour cell line growth inhibition, 48 h
result type: TGI

* O=c1/c(=C/c2ccc3c(c2)OCO3)sc2nnc(-c3ccco3)n12 | > 100 µM
* S=C(Nc1ccccc1)N1N=C2c3ccccc3CC[C@H]2[C@@H]1c1ccccc1 | > 100 µM
* COc1cc2c3c(c4c5ccccc5[nH]c4c2c(OC)c1OC)C(=O)N(CCN1CCCCC1)C3=O | 4.17 µM
* CN1CCCN(C(c2ccccc2)c2ccc(Br)cc2)CC1 (configuration not stated) | 36.2 µM
* CCOC(=O)/C=C/c1ccccn1 | > 100 µM
* COC(=O)NN1C(C)=C(C(=O)OC)C2(CCOC2=O)C1(C)O (configuration not stated) | > 100 µM
* CCN(CC)C1=Nc2ccccc2-n2c(C)cnc2C1 | > 100 µM
* CN1CCN(c2ccc(-n3cc(C(=O)O)c(=O)c4cc(F)c(N5CCN(C)CC5)cc43)nc2)CC1 | > 100 µM
* CCOC1SC(SC)=NN1C(=O)C(OC(C)=O)C(OC(C)=O)C(OC(C)=O)C(OC(C)=O)C(=O)N1N=C(SC)SC1OCC (configuration not stated) | > 100 µM
* CSc1nc2c(c(=O)[nH]1)C(c1ccc(Cl)cc1)C1=C(N2)/C(=C/c2ccc(Cl)cc2)CNC1 (configuration not stated) | 3.14 µM
* C/C(=N\NC(=O)c1ccncc1)c1ccc(O)cc1O | > 100 µM
* CCNCCCCNCC | > 3750 µM
* COc1ccc(C(=O)O)c(Cc2ccc3ccccc3c2)c1 | > 100 µM
* O=C(Nc1c(Cl)cc([N+](=O)[O-])cc1Cl)/C(=N\Nc1cccc(Cl)c1)c1c(O)c2ccccc2oc1=O | > 100 µM
* Nc1nc2c(c3cnccc13)C(c1cccc(Cl)c1)Cc1cnccc1-2 (configuration not stated) | 20.2 µM
* CCn1cnc2c(NC(C)=O)ncnc21 | > 100 µM
* O=C(Nc1ccc(Br)cc1F)c1cc(Br)ccc1O | 2.02 µM
